The values you see were collected from ChEMBL document CHEMBL4219043.

# protocol_summary: Apparent permeability of the compound by PAMPA
# Type: ADME
Papp by entry:
quantity_name: Papp

| compound_smiles | quantity_name | observed |
| --- | --- | --- |
| Cc1cc(C(=O)N[C@H]2CCCCC/C=C\[C@@H]3C[C@@]3(C(=O)NS(=O)(=O)C3(C)CC3)NC(=O)[C@@H]3C[C@@H](Oc4nc5cc(F)ccc5nc4C(F)(F)F)CN3C2=O)no1 | Papp | 12.1 ×10⁻⁶ cm/s |
| Cc1cc(C(=O)N[C@H]2CCCCC/C=C\[C@@H]3C[C@@]3(C(=O)NS(=O)(=O)C3(C)CC3)NC(=O)[C@@H]3C[C@@H](Oc4nc5ccccc5c5ccc(F)cc45)CN3C2=O)no1 | Papp | 0.19 ×10⁻⁶ cm/s |
| CC(=O)N(C)[C@@H](CC(C)(C)C)C(=O)N[C@H]1CCCCC/C=C\[C@@H]2C[C@@]2(C(=O)NS(=O)(=O)C2(C)CC2)NC(=O)[C@@H]2C[C@@H](Oc3nc4cc(F)ccc4c4ccccc34)CN2C1=O | Papp | 0.28 ×10⁻⁶ cm/s |
| Cn1ccc(C(=O)N[C@H]2CCCCC/C=C\[C@@H]3C[C@@]3(C(=O)NS(=O)(=O)C3(C)CC3)NC(=O)[C@@H]3C[C@@H](Oc4nc5cc(OC(F)(F)F)ccc5c5ccc(F)cc45)CN3C2=O)n1 | Papp | 0.06 ×10⁻⁶ cm/s |
| Cc1cc(C(=O)N[C@H]2CCCCC/C=C\[C@@H]3C[C@@]3(C(=O)NS(=O)(=O)C3CC3)NC(=O)[C@@H]3C[C@@H](Oc4nc5ccccc5nc4C)CN3C2=O)no1 | Papp | 3.5 ×10⁻⁶ cm/s |
| Cc1cc(C(=O)N[C@H]2CCCCC/C=C\[C@@H]3C[C@@]3(C(=O)NS(=O)(=O)C3CC3)NC(=O)[C@@H]3C[C@@H](Oc4nc5cc(F)ccc5nc4C(F)(F)F)CN3C2=O)no1 | Papp | 5.1 ×10⁻⁶ cm/s |

###

# Tested on: Hepatitis C virus
# protocol_summary: Antiviral activity against HCV genotype 1b Con1 harboring NS3 D168V mutant infected in human HuH7 replicon cells after 3 days by luciferase reporter gene assay
# Format: functional, organism-based, Hepacivirus hominis
# condition_label: isolate Con1, Huh-7, 72 h
pEC50: −log10 of the molar value.
Parameter pEC50: see the listing below.

| compound_smiles | pEC50 |
| --- | --- |
| Cc1cc(C(=O)N[C@H]2CCCCC/C=C\[C@@H]3C[C@@]3(C(=O)NS(=O)(=O)C3CC3)NC(=O)[C@@H]3C[C@@H](Oc4nc5cc(F)ccc5nc4C)CN3C2=O)no1 | 8.52 |
| Cc1cc(C(=O)N[C@H]2CCCCC/C=C\[C@@H]3C[C@@]3(C(=O)NS(=O)(=O)C3CC3)NC(=O)[C@@H]3C[C@@H](Oc4nc5ccccc5nc4C(F)(F)F)CN3C2=O)no1 | 8.70 |
| CC(=O)N(C)[C@@H](CC(C)(C)C)C(=O)N[C@H]1CCCCC/C=C\[C@@H]2C[C@@]2(C(=O)NS(=O)(=O)C2(C)CC2)NC(=O)[C@@H]2C[C@@H](Oc3nc4cc(F)ccc4c4ccccc34)CN2C1=O | 8.52 |
| Cc1cc(C(=O)N[C@H]2CCCCC/C=C\[C@@H]3C[C@@]3(C(=O)NS(=O)(=O)C3(C)CC3)NC(=O)[C@@H]3C[C@@H](Oc4nc5ccccc5c5ccc(F)cc45)CN3C2=O)no1 | 9.05 |
| Cc1cc(C(=O)N[C@H]2CCCCC/C=C\[C@@H]3C[C@@]3(C(=O)NS(=O)(=O)C3CC3)NC(=O)[C@@H]3C[C@@H](Oc4nc5cc(F)ccc5nc4C(F)(F)F)CN3C2=O)no1 | 8.82 |
| Cc1cc(C(=O)N[C@H]2CCCCC/C=C\[C@@H]3C[C@@]3(C(=O)NS(=O)(=O)C3CC3)NC(=O)[C@@H]3C[C@@H](Oc4nc5ccccc5nc4C)CN3C2=O)no1 | 8.30 |
| Cc1cc(C(=O)N[C@H]2CCCCC/C=C\[C@@H]3C[C@@]3(C(=O)NS(=O)(=O)C3(C)CC3)NC(=O)[C@@H]3C[C@@H](Oc4nc5cc(F)ccc5nc4C(F)(F)F)CN3C2=O)no1 | 8.89 |

###

# System: MOLT-4
# protocol_summary: Antiproliferative activity against human MOLT4 cells in presence of 10% human serum
# Type: functional, cell-based
quantity_name: EC50 (nM)

| molecule | quantity_name | value_comparator | observed |
| --- | --- | --- | --- |
| CC1(C)CCC(CN2CCN(c3ccc(C(=O)NS(=O)(=O)c4ccc(NCC5CCOCC5)c([N+](=O)[O-])c4)c(Oc4cnc5[nH]ccc5c4)c3)CC2)=C(c2ccc(Cl)cc2)C1 [VENETOCLAX] | EC50 | > | 5000 |
| CN(C)CC[C@H](CSc1ccccc1)Nc1ccc(S(=O)(=O)NC(=O)c2ccc(N3CCN(Cc4ccccc4-c4ccc(Cl)cc4)CC3)cc2)cc1[N+](=O)[O-] [ABT 737] | EC50 | = | 622 |
| CO[C@H]1CC[C@H](CNc2ccc(S(=O)(=O)NC(=O)c3ccc(N4CCN(CC5=C(c6ccc(Cl)cc6)CC(C)(C)CC5)CC4)cc3Oc3cnc4[nH]ccc4c3)cc2[N+](=O)[O-])CC1 [A-1211212] | EC50 | > | 5000 |
| CC1(C)CCC(c2ccc(Cl)cc2)=C(CN2CCN(c3ccc(C(=O)NS(=O)(=O)c4ccc(N[C@H](CCN5CCOCC5)CSc5ccccc5)c(S(=O)(=O)C(F)(F)F)c4)cc3)CC2)C1 [NAVITOCLAX] | EC50 | = | 303 |

###

# protocol_summary: Half life in iv dosed rat by LC-MS/MS analysis
# Format: ADME, organism-based
# condition_label: in vivo
Hi! Just check whether half-life is below 2 h. Below gives yes (1), equal or above gives no (0).

| compound_smiles | class_assignment |
| --- | --- |
| Cc1cc(C(=O)N[C@H]2CCCCC/C=C\[C@@H]3C[C@@]3(C(=O)NS(=O)(=O)C3(C)CC3)NC(=O)[C@@H]3C[C@@H](Oc4nc5cc(F)ccc5nc4C(F)(F)F)CN3C2=O)no1 | no (0) |
| Cn1ccc(C(=O)N[C@H]2CCCCC/C=C\[C@@H]3C[C@@]3(C(=O)NS(=O)(=O)C3(C)CC3)NC(=O)[C@@H]3C[C@@H](Oc4nc5cc(OC(F)(F)F)ccc5c5ccc(F)cc45)CN3C2=O)n1 | no (0) |
| Cc1cc(C(=O)N[C@H]2CCCCC/C=C\[C@@H]3C[C@@]3(C(=O)NS(=O)(=O)C3CC3)NC(=O)[C@@H]3C[C@@H](Oc4nc5ccccc5nc4C)CN3C2=O)no1 | no (0) |
| CC(=O)N(C)[C@@H](CC(C)(C)C)C(=O)N[C@H]1CCCCC/C=C\[C@@H]2C[C@@]2(C(=O)NS(=O)(=O)C2(C)CC2)NC(=O)[C@@H]2C[C@@H](Oc3nc4cc(F)ccc4c4ccccc34)CN2C1=O | yes (1) |
| Cc1cc(C(=O)N[C@H]2CCCCC/C=C\[C@@H]3C[C@@]3(C(=O)NS(=O)(=O)C3(C)CC3)NC(=O)[C@@H]3C[C@@H](Oc4nc5ccccc5c5ccc(F)cc45)CN3C2=O)no1 | no (0) |
| Cc1cc(C(=O)N[C@H]2CCCCC/C=C\[C@@H]3C[C@@]3(C(=O)NS(=O)(=O)C3CC3)NC(=O)[C@@H]3C[C@@H](Oc4nc5cc(F)ccc5nc4C(F)(F)F)CN3C2=O)no1 | no (0) |
| Cc1cc(C(=O)N[C@H]2CCCCC/C=C\[C@@H]3C[C@@]3(C(=O)NS(=O)(=O)C3CC3)NC(=O)[C@@H]3C[C@@H](Oc4nc5ccccc5nc4C(F)(F)F)CN3C2=O)no1 | yes (1) |

###

# protocol_summary: Apparent permeability of the compound in human Caco2 cells
# Format: ADME, cell-based
# condition_label: Caco-2

| compound_smiles | Papp |
| --- | --- |
| Cc1cc(C(=O)N[C@H]2CCCCC/C=C\[C@@H]3C[C@@]3(C(=O)NS(=O)(=O)C3CC3)NC(=O)[C@@H]3C[C@@H](Oc4nc5cc(F)ccc5nc4C)CN3C2=O)no1 | 2.8 ×10⁻⁶ cm/s |
| Cc1cc(C(=O)N[C@H]2CCCCC/C=C\[C@@H]3C[C@@]3(C(=O)NS(=O)(=O)C3CC3)NC(=O)[C@@H]3C[C@@H](Oc4nc5ccccc5nc4C(F)(F)F)CN3C2=O)no1 | 5.4 ×10⁻⁶ cm/s |
